Values were extracted from patent US11497751B2.

pIC50: −log10 of the molar value. Counter-ions that a name gives are not always drawn.
System: N-terminal 6His-tagged ROCK2 catalytic domain 11-552 (Homo sapiens, UniProt O75116) | Read-out: pIC50
Sequence (O75116 11-552): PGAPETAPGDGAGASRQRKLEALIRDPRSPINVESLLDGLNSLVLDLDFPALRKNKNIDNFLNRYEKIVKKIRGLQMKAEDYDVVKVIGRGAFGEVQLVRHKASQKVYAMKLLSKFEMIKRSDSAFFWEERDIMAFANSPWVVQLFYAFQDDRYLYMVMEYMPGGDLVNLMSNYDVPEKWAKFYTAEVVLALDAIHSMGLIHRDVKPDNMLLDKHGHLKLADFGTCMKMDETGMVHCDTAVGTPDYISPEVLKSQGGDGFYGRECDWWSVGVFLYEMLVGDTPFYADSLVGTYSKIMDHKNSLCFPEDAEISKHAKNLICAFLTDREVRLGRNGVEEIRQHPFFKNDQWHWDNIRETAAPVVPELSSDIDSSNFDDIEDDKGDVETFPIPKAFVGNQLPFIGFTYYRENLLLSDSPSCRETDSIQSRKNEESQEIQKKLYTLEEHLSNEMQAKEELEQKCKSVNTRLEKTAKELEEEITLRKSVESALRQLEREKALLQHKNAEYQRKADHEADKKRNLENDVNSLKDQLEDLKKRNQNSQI

Below, each entry is followed by its recorded pIC50 result.
                                   compound  obs_value
0  CC(C)NC(=O)COc1ccc(-c2nc(Nc3ccc4[nH]ncc4c3Cl)n(C)n2)c(F)c1F     > 6.52
1   Cn1nc(-c2ccccc2O)nc1Nc1ccc2[nH]ncc2c1Cl     > 6.52
2  CCNC(=O)c1ccc(-c2nc(Nc3ccc4[nH]ncc4c3C3CC3)n(C)n2)cc1     > 6.52

Bench note, N-terminal 6His-tagged ROCK2 catalytic domain 11-552 (Homo sapiens, UniProt O75116): CC(C)NC(=O)NCCOc1ccc(-c2nnc(Nc3ccc4[nH]ncc4c3)[nH]2)cc1 [Example 224, dihydrochloride] , pIC50 reads > 6.52

Item Cc1cc(OCC(=O)NC(C)C)ccc1-c1nnc(Nc2ccc3[nH]ncc3c2)[nH]1 ; assay system N-terminal 6His-tagged ROCK2 catalytic domain 11-552 (Homo sapiens, UniProt O75116); pIC50 reported as > 6.52

Assay N-terminal 6His-tagged ROCK2 catalytic domain 11-552 (Homo sapiens, UniProt O75116), sample COc1cc(-c2nc(Nc3ccc4[nH]ncc4c3Cl)n(C)n2)ccc1OCC(=O)NCC(C)O (centres unmarked) , pIC50 read: > 6.52

Param item: COCCn1nc(-c2ccc(C(=O)NCC(F)(F)F)c(C)c2)nc1Nc1ccc2[nH]ncc2c1C ; param system: N-terminal 6His-tagged ROCK2 catalytic domain 11-552 (Homo sapiens, UniProt O75116); output pIC50: > 6.52

Value (pIC50, N-terminal 6His-tagged ROCK2 catalytic domain 11-552 (Homo sapiens, UniProt O75116)) for record CCNC(=O)c1cc(F)c(-c2nc(Nc3ccc4[nH]ncc4c3)n(C)n2)c(F)c1 = > 6.52

###

Form field: IC50 (one value per entry).
SUBJECT OF TEST: N-terminal 6His-tagged ROCK2 catalytic domain 11-552 (Homo sapiens)
Construct: N-terminal 6His-tagged ROCK2 catalytic domain 11-552; 6His (N); purchased Dundee University, UK; host or cells: baculovirus expression system
PROTOCOL DESCRIPTION: ROCK2 binding activity: ROCK2 inhibition, ADP-Glo Kinase Assay
Type: biochemical
CONDITION SET: 1.25 nM ROCK2, 100 μM long S6 peptide, 20 μM ATP; 1 hour pre-incubation; read-out: ADP-Glo kinase activity assay ROCK2 Category
Procedure: Assay for ROCK2 inhibition was performed using the protein construct N-terminal 6His-tagged ROCK2 catalytic domain 11-552 (Dundee University, UK). Protein was purified from a baculovirus expression system. Long S6 peptide ([…]) was used as substrate. […] After incubation for a further 1 hour, the amount of ADP produced was measured using ADP-Glo Kinase Assay (Promega) as per manufacturer's instructions. The luminescence was measured on a PHERAstar FS (BMG Labtech). […]

Here is how some molecules turned out for IC50.
>>> print(df.to_string())
                                   molecule  measure  obs_value
0  CC(=O)N1CCc2cc(-c3nc(Nc4ccc5[nH]ncc5c4C4CC4)n(C)n3)ccc2C1C (centres unmarked) [Example 248]     IC50   < 300 nM
1  CCNC(=O)c1ccc(-c2nc(Nc3ccc4[nH]ncc4c3Cl)n(C)n2)cc1C#N [Example 358]     IC50   < 300 nM

Moving on to the next molecule.
Reported IC50 ( CC(C)NC(=O)COc1ccc(-c2nc(Nc3ccc4[nH]ncc4c3)n(C)n2)cc1F [Example 473] ) = < 300 nM
